System: KM12 colon
Experiment: NCI-60 one-dose screen, 48 h
Details: 10 µM
The panel holds about 83,000 compounds, 20% with a hit somewhere; the sample as a whole holds those more often. Activity calls are given as the source filed them. Rule for the calls: active = growth percent below 10; inactive = the rest.
A correct response names exactly one class from 1 = active, -1 = inactive

Consider the worked cases shown below.
>>> class_name("COc1cc(-c2cc(-c3cc4c([nH]c5ccccc54)c(-c4cc(OC)c(OC)c(OC)c4)n3)cc(-c3ccccc3)n2)cc(OC)c1OC")
-1
>>> class_name("FC(F)(F)c1ccc(-c2cnc(Cl)nc2N2CCC3(CC2)OCCO3)cc1")
-1
>>> class_name("CCCCCCCNc1nc(C=O)ncc1-c1ccc(C(F)(F)F)cc1")
-1
>>> class_name("ClCC#CCSc1ncnc2c1ncn2CC#CCCl")
1
>>> class_name("FC(F)(F)c1ccc2nc(-c3nc(-c4ccccc4)n4ccccc34)[nH]c2c1")
-1

Exam item: I would be grateful if you could indicate the recorded call for `COc1cc(-c2nc(Nc3nc4ccccc4s3)[nH]c(=O)c2C#N)cc(OC)c1O` .
Marked response: -1

Exam item: Hi team, can someone confirm the assay call for CCN1CCC(CCOC)(CN2c3ccccc3Sc3ccc(Cl)cc32)C1 (stereo unspecified) ?
Marked response: -1

Exam item: Which result was noted for this molecule in the test: `Cc1cs/c(=N\NC(=O)c2cc(-c3cc4ccccc4o3)nn2-c2ccccc2)n1-c1ccccc1`
Marked response: -1

Exam item: What is the recorded call for this molecule in the test? `COc1ccc(OC)c(NC(=O)c2sc3nc4c(cc3c2N)C(=O)CCC4)c1`
Marked response: -1

Exam item: What was the test verdict on `N#Cc1ncc(Br)c(NC2CCCCCC2)n1` ?
Marked response: -1

Exam item: Call for entry `CCCCCCCCCCCC[n+]1ccc(C(N)=O)cc1` :
Marked response: 1
